Tested on: UO-31 renal
Assay: NCI-60 one-dose screen, 48 h (100 = growth as untreated, 0 = no growth, -100 = all killed)
Details: 10 µM
This is part of a sample that, as a whole, favours compounds with a hit. Of some 83,000 tested, about 20% had one in any assay.
Measured Quantity: growth (%)
Respond with the bare value in %.

// lookup growth | system=UO-31 renal | key= C[C@@H]1C[C@H]2C(=O)O[C@@H](C)C(NC(=O)[C@H](Cc3cc(F)cc(F)c3)NC(=O)Nc3ccc(OS(=O)(=O)F)cc3)C(=O)N3CCC[C@H]3C(=O)N3CCO[C@H](C)[C@H]3C(=O)N[C@@H](CO)C(=O)N2C1 (some centres undefined) 88.7

// lookup growth | system=UO-31 renal | key= COc1cc2c(cc1OC)[C@@H]1N(CC2)C(=O)c2ccccc2[C@@]1(C)C(=O)O 97.3

// lookup growth | system=UO-31 renal | key= CC1=C[C@H]2O[C@@H]3C[C@H]4OC(=O)/C=C\C=C\[C@H]([C@@H](C)O)OCC/C(C)=C/C(=O)OC[C@@]2(CC1)[C@]4(C)[C@]31CO1 -29.4

// lookup growth | system=UO-31 renal | key= CC1=C(CN(O)C(N)=O)C2=C(C)C3(CC3)[C@@](C)(O)C(=O)C2=C1 -31.8
